Hey, just so you know, these numbers are from PubChem BioAssay (NCI).

Exercise: state measured TGI for each of the molecules provided.
- System: M19-MEL melanoma
- ASSAY_PROTOCOL: NCI tumour cell line growth inhibition, 48 h

MOLECULE	ENDPOINT_VALUE
C=CC12CN(C)C3C4COC(CC41)C1(C(=O)Nc4ccccc41)C32 (configuration not stated)	> 200 µM

Please state, for each entry, its recorded TGI.
1. CC(Oc1ccc(OCC2CCCCC2)cc1)C(=O)N(CCO)CCO (configuration not stated)
2. CCCCCCCCCCCCC(=O)[O-].CCCCCCCCCCCCC(=O)[O-].CCCCCCCCCCCCC(=O)[O-].CCCCCCCCCCCCC(=O)[O-].[Mo+2].[Mo+2]
3. O=C(Nc1ccc([N+](=O)[O-])cc1)C(=O)C(C(=O)c1ccccc1F)C1OC(=O)c2ccccc21 (configuration not stated)
4. FC(F)(F)C12C34C=CC5(CCC6(C=CC1(CC3)O6)C52C(F)(F)F)O4 (configuration not stated)
5. N/N=C(\Cc1ccccc1)NN=C(N)N

[out]
1: > 100 µM; 2: > 100 µM; 3: > 100 µM; 4: > 100 µM; 5: > 100 µM

Please state, for each entry, its recorded TGI.
1. C=CCc1ccc(O)c(-c2cc(C3Oc4c(-c5cc(CC=C)ccc5O)cc(O)cc4[C@@H]3CO)ccc2O)c1 (some centres not stated)
2. O=C1CC2C(=O)N(Cc3ccccc3)C1C(S(=O)(=O)c1ccccc1)C2S(=O)(=O)c1ccccc1 (configuration not stated)
3. CSc1nc(-c2ccccc2)c2c(n1)-c1ccccc1CC2
4. CCOC(=O)CN1CCSC1=NC#N
5. CCOc1ccc(NC(=O)CC2SC(N)=NC2=O)cc1 (configuration not stated)

[out]
> 100 µM
4.09 µM
> 100 µM
> 100 µM
> 100 µM

Please state, for each entry, its recorded TGI.
1. COC(=O)[C@]1(C)CCC[C@@]2(C)C1CCC1=C[C@@]3(C(C)C)CC[C@]12OO3 (some centres not stated)
2. Cc1c2ccncc2c(C)c2c1[nH]c1ccc(OC(C)(C)C)cc12
3. CCSc1nc(COC(=O)NC)c(COC(=O)NC)n1C

[out]
65.7 µM
5.54 µM
> 79.9 µM

Please state, for each entry, its recorded TGI.
1. O=C(Nc1cc(Cl)c(Cl)cc1Cl)C(=O)C(C(=O)c1ccc(Cl)c(Cl)c1)C1OC(=O)c2ccccc21 (configuration not stated)
2. CC(CCc1ccc2c(c1)c(=N)c1ccc(N)cc1n2O)CC(C)(C)C (configuration not stated)
3. FC(F)(F)c1ccc2nc(Nc3ccc(Cl)c(Cl)c3)c(-c3ccccc3)nc2c1

[out]
["37.9 µM", "2.98 µM", "> 100 µM"]
